Cited source: PubChem BioAssay (NCI)

- Test system: UO-31 renal
- experiment.description: NCI tumour cell line growth inhibition, 48 h
quantity.name: TGI (µM)
Answers are plain numbers, in µM.

Sample answers from the record:
1) O=C(Nc1cccc(C(F)(F)F)c1)Nc1cc(S(=O)(=O)NC2CC2)ccc1-c1ccsc1 : 13.3
2) CCc1c[nH]c2ncnc(N3CC[C@](N)(CNC(=O)c4ccc(F)cc4F)C3)c12 : 47.6
3) COC(=O)c1ccccc1NCc1cc(O)ccc1O : 31.9
4) Nn1c(=S)[nH]nc(/C=C/c2c(O)ccc3ccccc23)c1=O : 34.8

Now turn to the next compound.
Note to self: TGI of COC(=O)/C(=C/c1ccc(OC)cc1)c1cc(OC)c(OC)c(OC)c1 with UO-31 renal was 74.9

----------
- System: HOP-92 NSCLC
- experiment.description: NCI tumour cell line growth inhibition, 48 h
quantity.name: TGI

Look over these answered cases.
1. NNC(=O)COc1nc(-c2cccs2)nc2ccc(I)cc12 : 61.8 µM
2. Nc1c(/C=C/c2cc3cc(C4=NCCN4)ccc3o2)[nH]c2cc(C3=NCCN3)ccc12 : > 100 µM
3. O=C1COc2c(CCNCCN(C(=O)CCNCCc3ccc(Cl)c(Cl)c3)C3CCCCC3)ccc(O)c2N1 : 17.5 µM
4. Cn1c(=O)c(C#N)c(O)c2cc3ccccc3nc21 : > 100 µM
5. O=C(COC(=O)[C@H](C[Se][Se]C[C@H](NC(=O)c1ccc(Br)cc1F)C(=O)OCC(=O)c1ccc(F)cc1)NC(=O)c1ccc(Br)cc1F)c1ccc(F)cc1 : 6.66 µM

Please go through the list and note TGI for each molecule.
1. C(/Cc1ccc2c(c1)OCO2)=N\NC1=NCCCCN1
2. CCOC(=O)/C(=C/c1ccc[nH]1)P(=O)(OCC)OCC
3. CC(C)C12CCC3(CCC4C(C)(C(=O)O)CCCC4(C)C3C1)C(CN)C2 (stereo not given)
4. Cc1cc2c(=O)cc(-c3ccncc3)oc2c(C(=O)O)c1C
5. Brc1ccc2c(c1)-c1ccccc1C1=NCCN12
6. Cc1cccc(Cc2cnc(NC(=O)CCCOc3ccc(Cl)cc3)s2)c1
7. COc1ccc(N=C(SSC(=Nc2ccc(OC)cc2)c2ccc([N+](=O)[O-])o2)c2ccc([N+](=O)[O-])o2)cc1

1. > 100 µM
2. > 100 µM
3. > 100 µM
4. > 100 µM
5. 5.74 µM
6. > 100 µM
7. 6.7 µM

----------
- System: A549 NSCLC
- experiment.description: NCI tumour cell line growth inhibition, 48 h
quantity.name: TGI

Record excerpt, results attached:
1. Cc1nnc(N)s/c1=N/O : > 100 µM
2. CC(C)[C@H](NC(=O)OCc1ccccc1)C(=O)N[C@H](/C=C/C(=O)OC(C)(C)C)CO : > 100 µM
3. O=C(Nc1cccc(C(F)(F)F)c1)Nc1cc(S(=O)(=O)NC2CC2)ccc1-c1ccsc1 : 14.7 µM
4. CC(=O)Oc1c(OC(C)C)cc(=O)n2ccsc12 : > 100 µM

Go through the list and state TGI for each entry.
1. CN1C/C(=C\c2ccco2)c2nc(N)nc(-c3ccco3)c2C1
2. N/N=C(\N)SCc1ccc(N=C=S)cc1
3. Oc1[nH]c2ccccc2c1N=Nc1nc(-c2ccccc2)cs1
4. Cn1c(=O)c(Oc2ccc(F)cc2F)cc2cnc(NC3CCC(O)CC3)nc21 (stereo unspecified)

["> 100 µM", "> 100 µM", "> 100 µM", "> 25 µM"]
